# measured.target: E3 ubiquitin-protein ligase XIAP (Homo sapiens)
# experiment.notes: small molecules binding XIAP protein – biophysical, small-molecule microarray, fluorescence 635 nm, primary screen (AID 1181)
# cond: higher = more signal
Kind request: treat -0.008 as inclusive, so composite z-score at -0.008 or higher is T, anything lower is F.

Some solved cases for reference:
Cc1ccc(/C=C/C=O)cc1; F
COC(=O)[C@@]1(Cc2ccccc2)[C@H]2c3cc(C(=O)N(C)C)n(CCc4c[nH]c5ccc(O)cc45)c3C[C@H]2CN1C(=O)c1ccccc1; F
COC(=O)[C@@]1(Cc2ccc(F)cc2)[C@H]2c3cc(C(=O)N(C)C)n(Cc4ccc(C)o4)c3C[C@H]2CN1C(=O)c1ccccc1; T

Please check the record COc1ccc(CCNC(=O)[C@@]2(c3ccc([N+](=O)[O-])cc3)CC(=O)N(CC34CC5CC(CC(C5)C3)C4)[C@@H]2c2ccc(CO)cc2I)cc1 and state if its composite z-score is at or above -0.008.
F

Please check the record Cc1ccc(S[C@]2(C(=O)O)CC(=O)N(Cc3ccccc3C(F)(F)F)[C@@H]2c2ccc(CO)cc2I)cc1 and state if its composite z-score is at or above -0.008.
T

Please check the record O=C(NC1CC1)[C@@H]1c2ccccc2C(=O)N(C2Cc3ccccc3C2)[C@H]1c1ccc(CO)cc1 and state if its composite z-score is at or above -0.008.
T

Please check the record COc1ccc(C(O)C2C=CC3C(=O)N(C)C(=O)C3N2N(c2ccccc2)c2ccccc2)c2ccccc12 (stereo unspecified) and state if its composite z-score is at or above -0.008.
T

Please check the record O=C(O)C1N=C(c2ccc(OCCCO)cc2)N(c2ccccc2)O1 (stereo unspecified) and state if its composite z-score is at or above -0.008.
F

Please check the record COc1ccc(NC(=O)O[C@H]2[C@H](OC(=O)c3cc4ccccc4[nH]3)[C@@H](OC(=O)c3cc4ccccc4[nH]3)[C@@H](OC)O[C@@H]2CO)cc1 and state if its composite z-score is at or above -0.008.
T

Please check the record C=CCC(OC(C)=O)[C@@H]1[C@@H](N(Cc2ccc(-c3cccc(C(F)(F)F)c3)o2)C(=O)c2cccc3ccccc23)c2cc(OCCCO)ccc2N1C(=O)Cc1ccc2ccccc2c1 (stereo partly specified) and state if its composite z-score is at or above -0.008.
F

Please check the record O=C(NC1CC1)[C@@H]1c2ccccc2C(=O)N(Cc2cc(F)cc(C(F)(F)F)c2)[C@H]1c1ccc(CO)cc1 and state if its composite z-score is at or above -0.008.
F
